Where do the numbers come from? From PubChem BioAssay (Tox21).

molecular target: Nuclear receptor subfamily 1 group I member 2 (Homo sapiens) (UniProt O75469); assay: Human pregnane X receptor (PXR) small molecule agonists, qHTS assay (AID 1346982); settings: PXR-Luc HepG2, CYP3A4 luciferase reporter, 24 h; series mostly up to 92.4 µM; note: nearly all actives have a fitted effect of over 35% in size
Sequence (O75469 whole entry, looked up): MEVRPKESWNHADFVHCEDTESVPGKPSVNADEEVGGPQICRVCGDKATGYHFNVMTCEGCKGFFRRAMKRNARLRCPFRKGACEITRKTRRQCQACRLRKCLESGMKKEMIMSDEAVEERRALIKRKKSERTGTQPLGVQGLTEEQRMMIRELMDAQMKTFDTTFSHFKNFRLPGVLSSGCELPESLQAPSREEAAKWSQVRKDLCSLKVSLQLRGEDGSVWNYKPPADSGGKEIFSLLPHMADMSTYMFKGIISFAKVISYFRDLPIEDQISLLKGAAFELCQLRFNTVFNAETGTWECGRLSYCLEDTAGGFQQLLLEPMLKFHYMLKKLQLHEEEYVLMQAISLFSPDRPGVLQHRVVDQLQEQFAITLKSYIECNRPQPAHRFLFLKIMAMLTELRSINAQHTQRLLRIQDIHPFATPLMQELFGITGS
Inconclusive results are not listed. Activity calls are given as the source filed them. Calls come from the whole dose curve; as a rule, active = well fitted activation curve with a large enough effect in the repeat runs; inconclusive = weak or mixed curves; inactive = no such curve, though single readings can be large or run the other way.
Answer with one of the outcomes given here: Yes (active), No (inactive)

Worked examples follow.
COMPOUND | MEASUREMENT TARGET | ASSIGNED LABEL
C[C@@H]1CCN(C(=O)[C@H](CCCN=C(N)N)NS(=O)(=O)c2cccc3c2NC[C@H](C)C3)[C@@H](C(=O)O)C1 | Nuclear receptor subfamily 1 group I member 2 (Homo sapiens) (UniProt O75469) | No
CC(=O)OCC(CCn1cnc2cnc(N)nc21)COC(C)=O | Nuclear receptor subfamily 1 group I member 2 (Homo sapiens) (UniProt O75469) | No
CCS(=O)(=O)c1ccc(OC)c(C(=O)OC)c1 | Nuclear receptor subfamily 1 group I member 2 (Homo sapiens) (UniProt O75469) | No

*Q* Any idea what this test logged for Cc1cc(O)cc2c1O[C@](C)(CCC[C@H](C)CCC[C@H](C)CCCC(C)C)CC2 ?
*A* No

*Q* Any idea what this test logged for CCCc1cc(C(N)=S)ccn1 ?
*A* No

*Q* Any idea what this test logged for CC(C)(C)c1nnc(NS(=O)(=O)c2ccccc2)s1 ?
*A* Yes

*Q* Any idea what this test logged for ClC(Cl)(Br)Br ?
*A* No

*Q* Any idea what this test logged for Nc1c2c(nc3ccccc13)CCCC2O (configuration not stated) ?
*A* No

*Q* Any idea what this test logged for OC(CCN1CCCCC1)(c1ccccc1)C1CC2C=CC1C2 (configuration not stated) ?
*A* Yes

*Q* Any idea what this test logged for CN1N=C(C(N)=O)CCC1=O ?
*A* No

*Q* Any idea what this test logged for NC(=O)c1ccc([N+](=O)[O-])cc1 ?
*A* No

*Q* Any idea what this test logged for CCO[Si](CCC1CCC2OC2C1)(OCC)OCC (configuration not stated) ?
*A* No
